- Test system: RPMI-8226 leukemia
- assay remarks: NCI-60 one-dose screen, 48 h (100 = growth as untreated, 0 = no growth, -100 = all killed)
- study conditions: 10 µM
Compounds without any hit were thinned out: in the full panel of roughly 83,000, 20% have a hit.
attribute measured: growth (%)
One number for each entry, in %.

COc1ccc(-c2nc(S(=O)(=O)c3ccccc3)c(S(C)(=O)=O)o2)cc1
-39.9
O=C(Nc1nc2ccc([N+](=O)[O-])cc2s1)Nc1cc(Cl)ccc1I
-40.9
CC(=O)Nc1nc(-c2ccc(N3CCN(C)CC3)c(NS(=O)(=O)c3cccc4c(N(C)C)cccc34)c2)cs1
6.29
CCN1CCN(c2ccc(NC(=O)Nc3ccc4c(c3F)CCN4c3ccnc(C(=O)NC)c3)cc2C(F)(F)F)CC1
-40.2

Look up growth for the entries below, preserving their order.
1. N#Cc1c(NC(=O)c2cccc(C(F)(F)F)c2)sc2c1CCC(O)=C2
2. Cc1noc2c(Cc3ccc([N+](=O)[O-])cc3)nn(CC(=O)N/N=C/c3ccc(Br)cc3)c(=O)c12
3. CC(C)C1=C[C@@]23CC[C@@H]4[C@](C)(CCC[C@]4(C)C(=O)NCc4ccccc4)[C@H]2C[C@@H]1[C@H]1C(=O)CCC(=O)[C@H]13
4. N#Cc1c(NC(=O)c2ccc(C(O)(C(F)(F)F)C(F)(F)F)cc2)sc2c1CCC(=O)C2
5. O=c1nc(-c2ccccc2)cc(-c2cc3ccccc3nc2Cl)[nH]1
6. COc1ccc(NC(=O)CSc2nnc(-c3ccc4nc(-c5ccc(Cl)cc5)[nH]c4c3)o2)cc1

Ans.
1: 25; 2: 91.2; 3: 40.4; 4: 6.42; 5: -29.4; 6: 56.5

---

- Tested on: MALME-3M melanoma
- assay remarks: NCI-60 one-dose screen, 48 h
- study conditions: 10 µM
This is part of a sample that, as a whole, favours compounds with a hit. Of some 83,000 tested, about 20% had one in any assay. Calls of active or inactive are those of the source. Rule for the calls: active = growth percent below 10; inactive = the rest.
Return exactly one item of 1 for active, 0 for inactive

O=C1NC(=NC2CCCCCC2)N/C1=C\c1ccc2ncoc2c1
0
CC1(C)CC[C@]2(C(=O)NCCCNCCCCNCCCN)CC[C@]3(C)C(=CC[C@@H]4[C@@]5(C)Cc6c([nH]c7ccccc67)C(C)(C)[C@@H]5CC[C@]43C)[C@H]2C1
0
COc1cccc(/C=C2\N=C(C)N(CCc3ccc(S(N)(=O)=O)cc3)C2=O)c1
0

Qu. Status in this test for CCOC(=O)C1=C(N)N(c2ccc(Cl)cc2)C2=C(C(=O)CC(C)(C)C2)C1c1ccc(N2CCOCC2)cc1 (stereo unspecified) ?
Ans. 0

Qu. Status in this test for `C=C1CC[C@H](C(=C)C)[C@H]2C=C(C)C(=O)C3=C(C(=O)[C@@](C)(O)C3)[C@H]12` ?
Ans. 1

Qu. Status in this test for `NS(=O)(=O)c1ccc(NC(=O)CSc2ccc(-c3ccccc3)nn2)c(Br)c1` ?
Ans. 0

---

- Tested on: MCF7 breast
- assay remarks: NCI-60 one-dose screen, 48 h (100 = growth as untreated, 0 = no growth, -100 = all killed)
- study conditions: 10 µM
Compounds without any hit were thinned out: in the full panel of roughly 83,000, 20% have a hit.
attribute measured: growth (%)
Give bare numbers, in %.

Some entries whose results are on file:
C/C(=C\c1ccc(O)cc1O)c1ccc2ccc(O)cc2[o+]1
22.2
Cc1ccc(-c2cc(-c3cc4ccccc4nc3Cl)[nH]c(=S)n2)cc1
47.5
CN1CCO/C1=C(/NC(=O)c1ccc(Cl)cc1)[P+](c1ccccc1)(c1ccccc1)c1ccccc1
62.9
COc1ccc(-c2cc(-c3cc(C(=O)c4ccc(Br)cc4)n4ccc(C)cc34)nc(N)c2C#N)cc1
79.1
N#Cc1ccc(-c2nn(-c3ccc(C(=O)O)cc3)cc2CNc2cccc(Br)c2)cc1
48.2
C/C(=C\CC/C=C(\C)CC/C=C(\C)CC[C@@H](O)C(C)(C)O)CC/C=C(\C)CC[C@@H](O)C(C)(C)O
13.8
CC(=O)Nc1ccc(-c2cn(-c3cccc(C(=O)Nc4ccc(Cl)c(C(F)(F)F)c4)c3)nn2)cn1
-48.3
COc1ccc(-c2nc(S(=O)(=O)c3ccc(C)cc3)c(S(C)(=O)=O)o2)cc1
-53.1

Look up growth for the entries below, preserving their order.
1. COc1csc(/C=N/NC(=O)c2[nH]c3ccc(Br)cc3c2-c2ccccc2)c1
2. COc1ccc2[nH]c(=O)c(CSc3nccc(-c4ccc(Cl)cc4)n3)cc2c1
3. O=C(c1ccc(O)cc1)C1[C@H](c2ccccc2Br)[C@@H](c2ccccc2)NC12C(=O)Nc1ccc(Br)cc12 (some centres not stated)
4. O=C(c1ccc(-n2c(=O)[nH]c3ccccc3c2=O)cc1)N1CCOCC1
5. CC(C)CCSc1nc(NC2CC2)c(C#N)c(-c2ccc(C(C)C)cc2)n1
6. Cc1ccc(C(=O)CSc2nnc(-c3c[nH]c4ccccc34)n2-c2ccccc2)cc1
7. NS(=O)(=O)c1ccc(NC(=O)CSc2ccc(-c3ccccc3)nn2)c(Br)c1
8. COc1ccc(/C(C)=N/N=C2C(=O)N(C)c3ccc(Br)cc32)cc1S(N)(=O)=O

Ans.
[-3.06, 7.81, 7.04, 101, 97.9, 12.5, 79, 57.8]
